Below: a set of entries, each annotated with reported % Eclosion.
Test system: bed bug eggs
Type: in vivo, Cimex lectularius L.
Test settings: […] neem oil + named solvent in isopropanol; 4 h dried residue; 3 weeks after infestation
Numeric only. Scale: %

Study these solved cases before continuing.
Compound	Study target	Measurement
CC(=O)C1CCCCC1 [Methylcyclohexylketone]	bed bug eggs	80
CC(=O)c1ccccc1 [Acetophenone]	bed bug eggs	0
CC(=O)c1ccc(C)c(C)c1 [3′,4′-Dimethylacetophenone]	bed bug eggs	0

Turning to the following compound.
Please report the recorded % Eclosion for CCC(=O)c1ccc(C)cc1 [4′-Methylpropiophenone] .
0
